Values were extracted from the NIST ThermoML archive (doi:10.1021/acs.jced.7b01034).

# ASSAY OVERVIEW: molar heat capacity at constant pressure
# RUN CONDITIONS: 298.15 K; 100 kPa; Crystal; DSC
TEST READOUT: molar heat capacity at constant pressure (J/K/mol)
Give your result in J/K/mol as a bare value.

MOLECULE | molar heat capacity at constant pressure / J/K/mol
c1ccc2cc3ccccc3cc2c1 | 209.9

Record O=c1cc(-c2ccccc2)oc2cc(O)ccc12 [7-hydroxyflavone] . Reported molar heat capacity at constant pressure: 253.1

Short answer for c1cc2ccc3cccc4ccc(c1)c2c34 : molar heat capacity at constant pressure was 225.8

Entry Nc1ccc2oc(-c3ccccc3)cc(=O)c2c1 ; molar heat capacity at constant pressure = 277.9

The measured molar heat capacity at constant pressure associated with O=c1cc(-c2ccccc2)oc2ccc(O)cc12 [6-hydroxyflavone] reads 250.3

molar heat capacity at constant pressure measured on O=c1c(O)c(-c2ccccc2)oc2ccccc12 [3-hydroxyflavone] = 270.1

Value of molar heat capacity at constant pressure reported for the molecule O=C(O)c1ccccc1 is 145.2

// molar heat capacity at constant pressure lookup, molecule = O=c1cc(-c2ccccc2)oc2cccc(O)c12 [5-hydroxyflavone] , result: 279.8

* * *

# ASSAY OVERVIEW: molar heat capacity at constant pressure
# RUN CONDITIONS: 343.15 K; 100 kPa; Crystal; DSC
TEST READOUT: molar heat capacity at constant pressure (J/K/mol)
Lab book: enter the figure in J/K/mol, no units written.

COMPOUND | NUMBER
O=c1cc(-c2ccccc2)oc2cc(O)ccc12 [7-hydroxyflavone] | 295.3
O=c1c(O)c(-c2ccccc2)oc2ccccc12 [3-hydroxyflavone] | 298.9
O=c1cc(-c2ccccc2)oc2cccc(O)c12 [5-hydroxyflavone] | 319.5
Nc1ccc2oc(-c3ccccc3)cc(=O)c2c1 [6-aminoflavone] | 320.4

Alright, here's another compound for you.
For O=c1cc(-c2ccccc2)oc2ccc(O)cc12 [6-hydroxyflavone] the compound record lists molar heat capacity at constant pressure as 297.3

* * *

# ASSAY OVERVIEW: molar heat capacity at constant pressure
# RUN CONDITIONS: 418.15 K; 100 kPa; Crystal; DSC
Numbers after ± are expanded uncertainties.
Entries and their molar heat capacity at constant pressure

// solved cases for molar heat capacity at constant pressure follow
MOLECULE | molar heat capacity at constant pressure
O=c1cc(-c2ccccc2)oc2cc(O)ccc12 [7-hydroxyflavone] | 355.2 ± 18 J/K/mol
Nc1ccc2oc(-c3ccccc3)cc(=O)c2c1 | 381.8 ± 19 J/K/mol
O=c1cc(-c2ccccc2)oc2ccc(O)cc12 [6-hydroxyflavone] | 365.8 ± 18 J/K/mol
O=c1c(O)c(-c2ccccc2)oc2ccccc12 [3-hydroxyflavone] | 366 ± 18 J/K/mol

# molar heat capacity at constant pressure (molecule: O=c1cc(-c2ccccc2)oc2cccc(O)c12 [5-hydroxyflavone] ) is 387.6 ± 19 J/K/mol

Briefly, molar heat capacity at constant pressure measured for c1ccc2cc3ccccc3cc2c1 : 306.8 ± 15 J/K/mol

* * *

# ASSAY OVERVIEW: molar heat capacity at constant pressure
# RUN CONDITIONS: 388.15 K; 100 kPa; Crystal; DSC
Numbers after ± are expanded uncertainties.
TEST READOUT: molar heat capacity at constant pressure
Just so you know, I need the unit written after the number.

For record O=c1c(O)c(-c2ccccc2)oc2ccccc12 [3-hydroxyflavone] the listed molar heat capacity at constant pressure is 336.9 ± 17 J/K/mol

The recorded molar heat capacity at constant pressure for O=c1cc(-c2ccccc2)oc2ccc(O)cc12 [6-hydroxyflavone] is 339.8 ± 17 J/K/mol

Lab note: O=C(O)c1ccccc1 [benzoic acid] gave molar heat capacity at constant pressure of 190.1 ± 9.5 J/K/mol
